assay: Inhibition of Trypanosoma brucei FTase; details: read-out: IC50
quantity-measured: IC50 (µM)
Give just the numeric value; µM need not be written.

Record CC(C)=CCCC1(C)C=Cc2c(-c3c4c(c5ccccc5c3O)OC(C)(CCC=C(C)C)C=C4)c(O)c3ccccc3c2O1 (stereo not given) , field IC50: 6.1

The compound listed as CC(C)=CCC/C(C)=C/CCc1ccc2c(c1)C(=O)c1ccccc1C2=O shows IC50 equal to 1.7

Reported IC50 ( CC1(C)C=Cc2c(-c3c4c(c5ccccc5c3O)OC(C)(C)C=C4)c(O)c3ccccc3c2O1 ) = 1.73

get_value(item= CC(C)=CCCc1ccc2c(c1)C(=O)c1ccccc1C2=O , readout=IC50) returns 1.4

Entry CC(C)=CC1Oc2c(c3c(c4ccccc24)OC(C)(C)C=C3)C2=C1C(=O)c1ccccc1C2=O (stereo not given) ; IC50 = 0.112

* * *

tested on: Plasmodium falciparum; test: Antiplasmodial activity against chloroquine-resistant Plasmodium falciparum FcB1 infected in erythrocyte incubated for 48 hrs by [3H]-hypoxanthine incorporation assay; type: functional, organism-based
quantity-measured: IC50

The reported IC50 of the molecule CC(C)=CCCC1(C)C=Cc2c(-c3c4c(c5ccccc5c3O)OC(C)(CCC=C(C)C)C=C4)c(O)c3ccccc3c2O1 (stereo not given) was 10.6 µM

CC(C)=CCCc1ccc2c(c1)C(=O)c1ccccc1C2=O has a reported IC50 of > 34 µM

IC50 reported for this molecule CC(C)=CCC/C(C)=C/CCc1ccc2c(c1)C(=O)c1ccccc1C2=O : > 28 µM

response.value for CC1(C)C=Cc2c(-c3c4c(c5ccccc5c3O)OC(C)(C)C=C4)c(O)c3ccccc3c2O1 [tectol] (field: IC50) = 3.44 µM

Value of measured IC50 for the entry CC(C)=CCCC1(C)C=Cc2c3c(c4ccccc4c2O1)OC(C)(CCC=C(C)C)C=C3 (stereo not given) : > 23 µM

# IC50 (molecule: CC(C)=CCC/C(C)=C/CC/C(C)=C/C1Oc2c(c3c(c4ccccc24)OC(C)(CC/C=C(\C)CCC=C(C)C)C=C3)C2=C1C(=O)c1ccccc1C2=O (stereo not given) ) is > 14 µM

Lab note: measured IC50 of CC(C)=CC1Oc2c(c3c(c4ccccc24)OC(C)(C)C=C3)C2=C1C(=O)c1ccccc1C2=O (stereo not given) [TECOMAQUINONE] was > 22 µM

IC50 for CC(C)=CCC/C(C)=C/CCC1(C)C=Cc2c3c(c4ccccc4c2O1)OC(C)(CC/C=C(\C)CCC=C(C)C)C=C3 (stereo not given) is > 18 µM

// IC50 value for CC(C)=CCC/C(C)=C/C1Oc2c(c3c(c4ccccc24)OC(C)(CCC=C(C)C)C=C3)C2=C1C(=O)c1ccccc1C2=O (stereo not given) : > 17 µM

The molecule identified as CC(C)=CCC/C(C)=C/CCC1(C)C=Cc2c(-c3c4c(c5ccccc5c3O)OC(C)(CC/C=C(\C)CCC=C(C)C)C=C4)c(O)c3ccccc3c2O1 (stereo not given) registered its IC50 at 7.05 µM

* * *

Please go through the items and note down their IC50.
test: Inhibition of Trypanosoma brucei FTase; settings: read-out: IC50
Remember to follow the number with its unit.

Reported IC50 for CC(C)=CCC/C(C)=C/CCC1(C)C=Cc2c3c(c4ccccc4c2O1)OC(C)(CC/C=C(\C)CCC=C(C)C)C=C3 (centres undefined) was 2.6 µM

Short answer for CC(C)=CCC/C(C)=C/CCC1(C)C=Cc2c(-c3c4c(c5ccccc5c3O)OC(C)(CC/C=C(\C)CCC=C(C)C)C=C4)c(O)c3ccccc3c2O1 (centres undefined) : IC50 was 8.7 µM

// IC50 value for CC(C)=CCCC1(C)C=Cc2c3c(c4ccccc4c2O1)OC(C)(CCC=C(C)C)C=C3 (centres undefined) : 7.9 µM

Entry under test: CC(C)=CCC/C(C)=C/C1Oc2c(c3c(c4ccccc24)OC(C)(CCC=C(C)C)C=C3)C2=C1C(=O)c1ccccc1C2=O (centres undefined) . Its IC50 was 2.7 µM
